- Test system: Rattus norvegicus
- experimental.details: Prodrug conversion in Sprague-Dawley rat assessed as AUC (0 to 6 hrs) of parent compound level at 10 mg/kg, po
- Type: ADME, organism-based
- Set-up: time < 6 hr, dose 10 mg/kg, route oral
- applied.conditions: in vivo
# maps each entry to its log10 AUC
reported.metric: log10 AUC (log10 of the value in µM·h)

# compound, log10 AUC
records = [
    ("CN(C)CCCOC(=O)c1c(-c2ccc[nH]c2=O)c2c3occc3c(F)cc2n1Cc1cc2[nH]cnc2cc1Cl.O=C(O)C(F)(F)F", 0.96),
    ("CC(CN(C)C)OC(=O)c1c(-c2ccc[nH]c2=O)c2c3occc3c(F)cc2n1Cc1cc2[nH]cnc2cc1Cl.O=C(O)C(F)(F)F (configuration not stated)", -0.10),
    ("CN(C)CCOC(=O)c1c(-c2ccc[nH]c2=O)c2c3occc3c(F)cc2n1Cc1cc2[nH]cnc2cc1Cl.O=C(O)C(F)(F)F", -0.30),
    ("O=C(O)C(F)(F)F.O=C(OCCN1CCOCC1)c1c(-c2ccc[nH]c2=O)c2c3occc3c(F)cc2n1Cc1cc2[nH]cnc2cc1Cl", -0.70),
    ("CCOC(=O)c1c(-c2ccc[nH]c2=O)c2c3occc3c(F)cc2n1Cc1cc2[nH]cnc2cc1Cl", -1.00),
    ("CC(OC(=O)c1c(-c2ccc[nH]c2=O)c2c3occc3c(F)cc2n1Cc1cc2[nH]cnc2cc1Cl)c1ccccc1 (configuration not stated)", -0.52),
    ("COCCOC(=O)c1c(-c2ccc[nH]c2=O)c2c3occc3c(F)cc2n1Cc1cc2[nH]cnc2cc1Cl", -0.70),
]
